- assay target: T1, prefusion-stabilized RSV F ectodomain (DS-Cav1), subtype B (respiratory syncytial virus subtype B)
- T1 construct: extracellular domain; also called Prefusion subtype B
- assay details: BLI, IgG on sensor
endpoint name: Kd (nM)
One number for each entry, in nM.

Known Kd results, listed for orientation:
Query string: What does the data say about its Kd? Entry: ADI-15624 (antibody, V domains shown, IgG; also called Antibody Number 189) VH: QVQLVQSGGGLVKAGGSLRLSCAASGFTISGFYMTWIRQAPGKGLEWVSSISGSSSYTNYADSVKGRFTISRDNAKNSLYLHMNSLRAEDTAVYYCARIRPDDSSGYPDYWGQGTLVTVSS VL: QSVLTQPPSVSGAPGQRVTISCTGSSSNIGAGYDVHWCQQLPGTAPKLLIYGNNNRPSGVPDRFSGSKSGTSASLAITGLQAEDEADYYCQSYDSSLSGFVFGTGTKVTVL
Result string: 0.407

Query string: And what about the binder ADI-15606 (antibody, V domains shown, IgG) VH: EVQLLESGGGLVQPGGSLRLSCAASGFTFRRYAMTWVRQAPGKGLEWVAAITATGDTTYYPDSVKGRFAVSRDNSRNTLYLQMDSLRAEDTALYYCAKSWDDYGDLDWYFALWGRGTLVTVSS VL: DIVMTQSPAILSVSPGERATLSCRASQSVSSSLAWYQQKPGQAPRLLIYGASTRATGIPPRFSGSGSGTQFTLTISSLQSEDFAVYYCQQYSDWPPLTFGGGTKVEIK ?
Result string: 5.75

***
Query string: What does the data say about its Kd? Entry: ADI-15556 (antibody, V domains shown, IgG) VH: QVQLVQSGAEVKKPGSSVKVSCKASGGNVNIYGISWVRQAPGQGLEWMGGIIPIYDTTKYAQKFQDRVTITADKSTSTAYMELSSLRSEDTAVYFCARDLDYDILTGYSVNYYYYGMDVWGQGTTVTVSS VL: QSVLTQPPSVSGAPGQRVTISCTGSSSNIGAGYDVHWYQQLPGTAPKLLIYGNINRPSGVPDRFSGSKSGTSASLAITGLQAEDEADYYCQSCDSSLSGWVFGGGTKLTIL
Result string: 2.2
